Catalogue of compounds with associated growth
# Test system: COLO 205 colon
# Assay Info: NCI-60 one-dose screen, 48 h (100 = growth as untreated, 0 = no growth, -100 = all killed)
# Reported Conditions: 10 µM
# Procedure: Cells are grown in 96 well plates and exposed to the test compound for 48 hours. Compounds are tested at a single concentration, which is 10^-5 M for most compounds. The reported endpoint is percent growth (GI% or GIPRCNT), where numbers from 0 - 100% represent growth inhibition, and numbers from -100% - 0 represent cell death. For example, a value of 40 represents 60% growth inhibition. A value of 0 means no net growth occurred over the course of the experiment. […]
Compounds without any hit were thinned out: in the full panel of roughly 83,000, 20% have a hit.
Property Name: growth (%)

Compound | Assay Value
O=C(O)CCCc1ccccc1 | 110
COc1ccc(C2(O)CCCCC2)cc1 | 112
COc1cc2nn(-c3ccccc3N)nc2cc1OC | 119
CC(=O)c1ccc2c(ccc3ccccc32)c1 | 111
CN(C)c1ccc(CNC(C(=O)c2ccccc2)c2ccccc2)cc1 (stereo not given) | 113
COc1ccccc1C1OC2=Nc3cc(C)c(C)cc3NC2C1=O (stereo not given) | 79.1
O=C(N/N=C/c1ccccc1O)Nc1nn[nH]n1 | 109
CCOC(=O)c1[nH]c(C)c(C(=O)O)c1C | 112
Nc1ccc(NC(=O)c2cccc(N)c2)cc1 | 114
O=C(c1ccccc1)C1CCC1 | 112
O=C(CS)Nc1ccc2ccccc2c1 | 112
CCCCCCCCO | 114
CC(=O)C1CCCCC1 | 101
CSC(=N\N=C\c1ccc(N(C)C)cc1)/N=C/N(C)C | 110
Oc1ccccc1-c1nnco1 | 103

---

Catalogue of compounds with associated growth
# Test system: SF-295 CNS
# Assay Info: NCI-60 one-dose screen, 48 h (100 = growth as untreated, 0 = no growth, -100 = all killed)
# Reported Conditions: 10 µM
About 83,000 compounds went through this panel and 20% of them were active in at least one assay; those are over-represented in the sample as a whole.

Compound | Assay Target | Unit Text | growth
CC(=O)Cc1ccc(-c2ccccc2)cc1 | SF-295 CNS | % | 99.8
O=C1C=C(O)C(=O)C=C1O | SF-295 CNS | % | 115
COS(=O)(=O)c1ccc(Br)cc1 | SF-295 CNS | % | 107
N#CC1(Nc2ccc3c4c(cccc24)CC3)CCCCC1 | SF-295 CNS | % | 98.8
Cc1cc(/C=C/c2ccc3cc(N(C)C)ccc3[n+]2C)c(C)n1-c1ccccc1 | SF-295 CNS | % | -33.6
C/C=C/CC(C)C(O)C1C(=O)NC(CC)C(=O)N(C)CC(=O)N(C)C(CC(C)C)C(=O)NC(C(C)C)C(=O)N(C)C(CC(C)C)C(=O)NC(C)C(=O)NC(C)C(=O)N(C)C(CC(C)C)C(=O)N(C)C(CC(C)C)C(=O)N(C)C(C(C)C)C(=O)N1C (stereo not drawn) | SF-295 CNS | % | -16.7
COc1cc(-c2ccc(NC(=O)NC3CC3)c(OC)c2)ccc1NC(=O)NC1CC1 | SF-295 CNS | % | 75.9
CCCNC(=O)c1ccc(S(N)(=O)=O)cc1 | SF-295 CNS | % | 127
CC(C)C1CCCCC1O (stereo not drawn) | SF-295 CNS | % | 111
S=C(Nc1ccccc1)N1CCCCC1 | SF-295 CNS | % | 98.2
CC(=O)OCC1OC(OC2=C(CC=C(C)C)C(=O)c3ccccc3C2=O)C(OC(C)=O)C(OC(C)=O)C1OC(C)=O (stereo not drawn) | SF-295 CNS | % | 63.4
COC(=O)c1cc(-c2ccc(Cl)c(Cl)c2)[nH]c(=O)c1C#N | SF-295 CNS | % | 96.1
CC(=O)NCc1cc(C)c(C)cc1C | SF-295 CNS | % | 103
O=[N+]([O-])c1cccc(N=Nc2ccc(O)cc2O)c1 | SF-295 CNS | % | 95.7
CS(=O)CC1=NC(=N)N=C1CS(C)=O (stereo not drawn) | SF-295 CNS | % | 98.1
CC1CC(O)C2C3(C)CCCC2(COC3=O)C12CCC1(CCOC1=O)O2 (stereo not drawn) | SF-295 CNS | % | 131
CC(=Nc1ccccc1)C1=C(O)C(Cc2cccc(F)c2)NC1=O (stereo not drawn) | SF-295 CNS | % | -5.61
COc1ccc(C2OC(N)=C(O)C2=O)cc1OC (stereo not drawn) | SF-295 CNS | % | 99.9
CCS(=O)(=O)c1cc(=O)[nH]c(=O)[nH]1 | SF-295 CNS | % | 122
CC(C)CCOC(=O)c1ccccc1 | SF-295 CNS | % | 100
COc1cc2c3c(n(C)c(=O)c2cc1OC)-c1cc2c(cc1C3=O)OCO2 | SF-295 CNS | % | 29.4
Cc1ccc(C(=O)NC2c3ccccc3Oc3ccccc32)cc1 | SF-295 CNS | % | 24.8
CN(c1ccccc1)c1ncnc2c1ncn2C | SF-295 CNS | % | 109

---

Catalogue of compounds with associated growth
# Tested on: OVCAR-3 ovarian
# Assay Info: NCI-60 one-dose screen, 48 h (100 = growth as untreated, 0 = no growth, -100 = all killed)
# Reported Conditions: 10 µM
# Procedure: Growth inhibition of the OVCAR-3 human tumor cell line is measured as a screen for anti-cancer activity. Cells are grown in 96 well plates and exposed to the test compound for 48 hours. Compounds are tested at a single concentration, which is 10^-5 M for most compounds. The reported endpoint is percent growth (GI% or GIPRCNT), where numbers from 0 - 100% represent growth inhibition, and numbers from -100% - 0 represent cell death. For example, a value of 40 represents 60% growth inhibition. […]
This is part of a sample that, as a whole, favours compounds with a hit. Of some 83,000 tested, about 20% had one in any assay.

Compound | Assay Target | Unit Text | growth
Nc1ccccc1SC(CC(=O)c1ccccc1)c1c(Cl)cccc1Cl (configuration not stated) | OVCAR-3 ovarian | % | 46.5
CC(=O)OC(C(=O)O)c1ccccc1 (configuration not stated) | OVCAR-3 ovarian | % | 120
CCOC(=O)c1cc2cccc(OC)c2oc1=O | OVCAR-3 ovarian | % | 138
O=C(c1ccc(Cl)cc1)c1ccccc1Cl | OVCAR-3 ovarian | % | 118
CC1CCCCN1C(=S)Nc1ccc(S(=O)(=O)N2CCCCC2)cc1 (configuration not stated) | OVCAR-3 ovarian | % | 97.7
Cc1cccc(CO)c1 | OVCAR-3 ovarian | % | 98.9
OCCN1CCOCC1 | OVCAR-3 ovarian | % | 122

---

# Tested on: HCT-116 colon
# Assay Info: NCI-60 one-dose screen, 48 h (100 = growth as untreated, 0 = no growth, -100 = all killed)
# Reported Conditions: 10 µM
Compounds without any hit were thinned out: in the full panel of roughly 83,000, 20% have a hit. Activity calls are given as the source filed them. Rule for the calls: active = growth percent below 10; inactive = the rest.
Catalogue of molecules with associated growth

Compound | Assay Target | growth
CC1=NN(c2ccccc2)C(=O)/C1=C\N1CC(=O)NC1=S | HCT-116 colon | 106% (inactive)
CC1=CC(C)(C)NC(=S)N1c1ccc(S(=O)(=O)O)c2cccc(S(=O)(=O)O)c12 | HCT-116 colon | 107% (inactive)
CCOC(=O)/C(=C/c1ccc(OC)cc1)N(CC)CC | HCT-116 colon | 101% (inactive)
Clc1ccc(-c2n[nH]c3c2Cc2ccccc2-3)cc1Cl | HCT-116 colon | 90.8% (inactive)
COCCOCCCl | HCT-116 colon | 99.7% (inactive)
O=C(Cc1nc2ccc([N+](=O)[O-])cc2nc1CC(=O)c1cccnc1)c1cccnc1 | HCT-116 colon | 50.5% (inactive)

---

# System: CCRF-CEM leukemia
# Assay Info: NCI-60 one-dose screen, 48 h (100 = growth as untreated, 0 = no growth, -100 = all killed)
# Reported Conditions: 10 µM
This is part of a sample that, as a whole, favours compounds with a hit. Of some 83,000 tested, about 20% had one in any assay.
Property Name: growth (%)

Compound | Property Name | Assay Value
Sc1ccc(Nc2c3ccccc3nc3ccccc23)cc1 | growth | 97.1
O=C(O)CCC(NC(=O)OCc1ccccc1)C(=O)O (stereo not drawn) | growth | 101
O=c1[nH][nH]c(=O)c2cc([N+](=O)[O-])ccc12 | growth | 100
C=C1CC/C=C(\C)C(=O)C[C@@H]2[C@@H]1CC2(C)C | growth | 69.3
CC(=O)OCC1=CC2OC(=O)C3=COC(OC4OC(CO)C(O)C(O)C4O)C1C32 (stereo not drawn) | growth | 104
O/N=C/c1ccc(O)cc1O | growth | 86.5
CCC(C)(C)C1CCC(O)CC1 (stereo not drawn) | growth | 93.5
O=C(O)/C=C/c1ccc2c(c1)CCC2 | growth | 83.5
Cc1cc2nc(CC(=O)c3cccc([N+](=O)[O-])c3)c(=O)[nH]c2cc1C | growth | 76.3
Nc1nc(N)c2cc(S(=O)(=O)c3cccc(C(F)(F)F)c3)ccc2n1 | growth | 45.8
CCCCCCCO | growth | 103
CCC(C)(O)c1ccc(C)cc1 (stereo not drawn) | growth | 99.3
COC(=O)Nc1nc2ccc(C(=O)c3cccs3)cc2[nH]1 | growth | 6.93
CCOC(=O)CNN | growth | 97.8
NCCCN | growth | 101
CN(c1ccccc1)c1ncnc2c1ncn2C | growth | 99.1
COc1ccc(Oc2c(I)cc(CC(NC(C)=O)C(=O)O)cc2I)cc1 (stereo not drawn) | growth | 78.4
C/C(=C\c1cc(Cl)ccc1OCC(=O)O)[N+](=O)[O-] | growth | 80.1
CCCCNC(=O)C(=O)NCCCC | growth | 101
Cc1nc2ccccc2c(C(=O)O)c1O | growth | 121
NC(=S)CN1CCOCC1 | growth | -25.8
N=c1c(C(=O)OCc2ccccc2)ncc(CCl)n1O | growth | 94
O=C(O)c1ccc(S(=O)(=O)O)cc1 | growth | 106
Cc1ccc(C(=O)N/N=C/c2ccc3c(c2)OCO3)cc1 | growth | 84.8
C=C[Si](OC(C)=O)(OC(C)=O)OC(C)=O | growth | 88
OCc1ccc(-c2ccc(-c3ccc(CO)s3)o2)s1 | growth | 41.5
CCCC(=O)Nc1ccc2c(c1)CN1C(=O)c3ccccc3C1=N2 | growth | 99.6
O=C1Cc2ccccc2C(=O)O1 | growth | 85.8

This collection of values is drawn from PubChem BioAssay (NCI).
